Data origin: patent US20130136748A1

- Assayed Target: human HER4 (human, UniProt Q15303 26-1308)
- Sequence (Q15303 26-1308 limits assumed): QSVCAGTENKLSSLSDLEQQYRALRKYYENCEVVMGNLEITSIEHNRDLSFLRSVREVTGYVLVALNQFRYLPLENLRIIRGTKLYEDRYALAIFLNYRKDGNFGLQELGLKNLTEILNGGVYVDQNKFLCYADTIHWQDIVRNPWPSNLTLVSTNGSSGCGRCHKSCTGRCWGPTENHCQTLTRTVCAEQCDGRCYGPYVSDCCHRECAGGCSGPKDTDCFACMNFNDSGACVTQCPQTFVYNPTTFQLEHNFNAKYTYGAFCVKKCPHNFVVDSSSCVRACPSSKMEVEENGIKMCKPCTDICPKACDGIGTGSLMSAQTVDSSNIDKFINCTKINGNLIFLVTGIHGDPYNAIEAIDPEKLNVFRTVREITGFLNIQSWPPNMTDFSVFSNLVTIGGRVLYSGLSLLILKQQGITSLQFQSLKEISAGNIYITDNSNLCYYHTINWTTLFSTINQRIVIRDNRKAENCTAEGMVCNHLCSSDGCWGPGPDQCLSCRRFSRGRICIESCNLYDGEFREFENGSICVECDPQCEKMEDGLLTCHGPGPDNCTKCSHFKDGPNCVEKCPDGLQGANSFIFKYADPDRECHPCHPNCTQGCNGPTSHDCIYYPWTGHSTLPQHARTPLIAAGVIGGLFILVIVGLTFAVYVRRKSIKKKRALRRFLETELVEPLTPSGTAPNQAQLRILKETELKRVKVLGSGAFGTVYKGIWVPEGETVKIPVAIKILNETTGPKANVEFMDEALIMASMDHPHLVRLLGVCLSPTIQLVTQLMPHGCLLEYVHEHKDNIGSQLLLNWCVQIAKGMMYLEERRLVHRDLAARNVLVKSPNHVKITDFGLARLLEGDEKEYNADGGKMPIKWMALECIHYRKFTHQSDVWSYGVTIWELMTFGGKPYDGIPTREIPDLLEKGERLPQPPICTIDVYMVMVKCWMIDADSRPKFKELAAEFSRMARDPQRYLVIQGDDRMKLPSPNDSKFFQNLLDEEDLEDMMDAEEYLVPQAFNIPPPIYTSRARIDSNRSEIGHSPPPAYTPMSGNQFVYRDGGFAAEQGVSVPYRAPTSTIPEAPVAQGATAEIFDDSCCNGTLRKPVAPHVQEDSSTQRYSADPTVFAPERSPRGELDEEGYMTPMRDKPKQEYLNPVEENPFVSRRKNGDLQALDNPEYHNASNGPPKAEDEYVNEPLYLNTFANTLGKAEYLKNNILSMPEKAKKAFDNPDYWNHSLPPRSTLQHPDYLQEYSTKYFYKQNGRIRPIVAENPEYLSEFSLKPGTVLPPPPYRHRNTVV
- Protocol Description: FACS CHO-HER4, 2000 nM

- Binder: "18F05 (VHH, also called 18F5) VHH: EVQLVESGGGLVQPGGSLRLSCVASGFTFSSYWMYWVRQAPGKGVEWVSAISPGGVERYTDSVKGRFTISRDNAKNTLYLQMNSLKSEDTAMYYCARLTSFATPESQGTQVTVSS"
  MCF: 120
- Binder: "21F06 (VHH, c-myc, His6-tagged form as expressed; also called 21F6; HER3MS21F06) VHH: EVQLVESGGGLVQAGGSLRLSCAASGRTYYLNAMGWFRQGPGKDREFVAAIDWSDGNKDYADSVKGRFTISRDNAKNTVYLQMNSLKPEDTAVYYCAADTPPWGPMIYIESYDSWGQGTQVTVSS"
  MCF: 263
